Where do the numbers come from? From patent US12391723B2.

- ASSAY_TARGET: ER-β (Homo sapiens, UniProt Q92731)
- Sequence (Q92731 whole entry, species assumed): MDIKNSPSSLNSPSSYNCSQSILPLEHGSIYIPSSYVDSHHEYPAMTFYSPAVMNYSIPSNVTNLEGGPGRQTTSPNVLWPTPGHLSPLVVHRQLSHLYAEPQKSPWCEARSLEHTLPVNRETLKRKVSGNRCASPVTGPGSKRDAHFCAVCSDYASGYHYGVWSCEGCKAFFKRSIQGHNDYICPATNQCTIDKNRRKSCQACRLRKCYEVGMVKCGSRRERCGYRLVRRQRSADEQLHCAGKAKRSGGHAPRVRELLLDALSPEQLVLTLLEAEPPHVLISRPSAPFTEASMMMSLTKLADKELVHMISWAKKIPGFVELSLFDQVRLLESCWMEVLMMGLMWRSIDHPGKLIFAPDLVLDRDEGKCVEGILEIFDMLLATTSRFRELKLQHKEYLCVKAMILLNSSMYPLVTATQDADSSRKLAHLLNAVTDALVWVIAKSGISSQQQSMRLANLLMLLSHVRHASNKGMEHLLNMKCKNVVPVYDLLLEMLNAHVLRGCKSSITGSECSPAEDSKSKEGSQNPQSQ
- TEST_NAME: ER-β agonist activity
EXPERIMENTAL_ENDPOINT: pEC50
Worth noting: pEC50 values are minus log10 of concentrations stated in mol/L.

Would you kindly share the measured pEC50 for C[C@]12CCc3c(ccc4ccc(O)cc34)[C@@H]1C[C@@H](O)C2 [Compound 205b] ?
7.70

---

- ASSAY_TARGET: UniProt Q9HAZ1
- Sequence (Q9HAZ1 whole entry, species assumed): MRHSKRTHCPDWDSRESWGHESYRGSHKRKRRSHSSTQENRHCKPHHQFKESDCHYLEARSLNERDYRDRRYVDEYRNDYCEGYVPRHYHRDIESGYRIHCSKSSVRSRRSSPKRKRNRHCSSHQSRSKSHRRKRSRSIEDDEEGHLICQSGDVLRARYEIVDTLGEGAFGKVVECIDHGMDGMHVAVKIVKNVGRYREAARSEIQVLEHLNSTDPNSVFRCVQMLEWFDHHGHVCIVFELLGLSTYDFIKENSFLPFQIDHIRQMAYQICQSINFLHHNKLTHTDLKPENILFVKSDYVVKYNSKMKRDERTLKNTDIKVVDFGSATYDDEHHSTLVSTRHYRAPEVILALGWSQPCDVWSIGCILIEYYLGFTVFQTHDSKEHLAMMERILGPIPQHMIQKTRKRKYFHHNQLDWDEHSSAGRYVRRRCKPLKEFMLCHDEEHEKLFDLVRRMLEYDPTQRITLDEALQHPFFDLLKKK
EXPERIMENTAL_ENDPOINT: Kd

Need Kd, item C[C@]12CCc3c(ccc4ccc(O)cc34)[C@@H]1C[C@@H](O)C2 [Compound 205b]
~0.35 µM
